Target: T1, Chryseobacterium sp-62563 deamidase polypeptide (second polypeptide, deamidase domain), wildtype (Chryseobacterium sp-62563)
T1 sequence: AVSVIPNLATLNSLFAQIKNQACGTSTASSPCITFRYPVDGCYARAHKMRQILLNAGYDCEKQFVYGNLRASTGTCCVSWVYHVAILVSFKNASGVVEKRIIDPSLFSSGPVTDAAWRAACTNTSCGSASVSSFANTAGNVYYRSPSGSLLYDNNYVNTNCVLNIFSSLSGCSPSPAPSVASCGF
Assay: cell-based or functional assay
measurement.name: Leakage activity (%)

Worked cases, answers included:
{"columns": ["binder", "Leakage activity, %"],
 "data": [
  ["Chryseobacterium sp-62563 propeptide R93P (protein) NQDPNLVAKESNETAMKDFGKTVPVGIEKEDGKFKISFMVTAQPYEIKDSKENAAYISMIKTAVENETPIHVFLKANTNEIAKVDKATDDDIPYFKSVFTKEVKEENRK", 4],
  ["Chryseobacterium sp-62563 propeptide F38C (protein) NQDPNLVAKESNETAMKDFGKTVPVGIEKEDGKFKISCMVTAQPYEIKDSKENAAYISMIKTAVENETPIHVFLKANTNEIAKVDKATDDDIRYFKSVFTKEVKEENRK", 26],
  ["Chryseobacterium sp-62563 propeptide E52P (protein) NQDPNLVAKESNETAMKDFGKTVPVGIEKEDGKFKISFMVTAQPYEIKDSKPNAAYISMIKTAVENETPIHVFLKANTNEIAKVDKATDDDIRYFKSVFTKEVKEENRK", 0]
]}

A: Chryseobacterium sp-62563 propeptide V98P (protein) NQDPNLVAKESNETAMKDFGKTVPVGIEKEDGKFKISFMVTAQPYEIKDSKENAAYISMIKTAVENETPIHVFLKANTNEIAKVDKATDDDIRYFKSPFTKEVKEENRK
B: Chryseobacterium sp-62563 propeptide Y94T (protein) NQDPNLVAKESNETAMKDFGKTVPVGIEKEDGKFKISFMVTAQPYEIKDSKENAAYISMIKTAVENETPIHVFLKANTNEIAKVDKATDDDIRTFKSVFTKEVKEENRK
Query string: I'm curious whether A or B has the smaller Leakage activity number. Which is it? Write down the label attached to your selection.
Result string: B

1: Chryseobacterium sp-62563 propeptide Y45N (protein) NQDPNLVAKESNETAMKDFGKTVPVGIEKEDGKFKISFMVTAQPNEIKDSKENAAYISMIKTAVENETPIHVFLKANTNEIAKVDKATDDDIRYFKSVFTKEVKEENRK
2: Chryseobacterium sp-62563 propeptide T14P (protein) NQDPNLVAKESNEPAMKDFGKTVPVGIEKEDGKFKISFMVTAQPYEIKDSKENAAYISMIKTAVENETPIHVFLKANTNEIAKVDKATDDDIRYFKSVFTKEVKEENRK
3: Chryseobacterium sp-62563 propeptide F99Q (protein) NQDPNLVAKESNETAMKDFGKTVPVGIEKEDGKFKISFMVTAQPYEIKDSKENAAYISMIKTAVENETPIHVFLKANTNEIAKVDKATDDDIRYFKSVQTKEVKEENRK
Query string: Kindly order the items shown according to Leakage activity, from the highest value down. # the answer lists labels in the order requested
Result string: 3, 1, 2
(3: 4%, 1: 2%, 2: 0%)

From: patent US20250215412A1
